TARGET UNDER TEST: human recombinant 5-HT2A receptor (Homo sapiens, UniProt P28223)
Construct: host or cells: CHO-K1
Sequence (P28223 whole entry): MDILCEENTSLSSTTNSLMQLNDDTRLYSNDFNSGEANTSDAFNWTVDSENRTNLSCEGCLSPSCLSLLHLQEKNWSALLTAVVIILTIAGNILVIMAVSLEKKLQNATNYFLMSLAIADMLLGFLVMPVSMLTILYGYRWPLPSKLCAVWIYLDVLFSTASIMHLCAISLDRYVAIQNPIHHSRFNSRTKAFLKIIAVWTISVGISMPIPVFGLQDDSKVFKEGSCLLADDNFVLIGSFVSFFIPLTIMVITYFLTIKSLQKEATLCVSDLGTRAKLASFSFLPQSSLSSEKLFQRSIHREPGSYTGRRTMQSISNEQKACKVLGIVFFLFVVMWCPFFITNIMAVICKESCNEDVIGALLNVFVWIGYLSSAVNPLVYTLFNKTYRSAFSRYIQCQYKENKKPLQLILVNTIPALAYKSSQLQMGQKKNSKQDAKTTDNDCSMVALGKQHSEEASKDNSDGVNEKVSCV
PROTOCOL TEXT: IPOne HTRF agonist assay, percent activity at 5-HT2A
Format: cell-based
STATED CONDITIONS: 0.3 μM (second value); relative to a-Me-5-HT; CHO-K1 cells
METRIC NAME: Percent (a-Me-5-HT) Activity at 5-HT2A (30 uM/0.3 μM) (%)
Reply with just the number (in %).

{"columns": ["COMPOUND", "RESULT UNITS", "TEST RESULT"],
 "data": [
  ["CCC(N)/C=C1\\CCc2ccccc21 (stereo not shown) [Compound 101]", "%", 15]
]}

**Query** Tell me Percent (a-Me-5-HT) Activity at 5-HT2A (30 uM/0.3 μM) of OCc1ccc2c(c1)/C(=C/CN1CCC1)CC2 [Compound 103] when tested on human recombinant 5-HT2A receptor (Homo sapiens, UniProt P28223).
**Result** 9

**Query** Tell me Percent (a-Me-5-HT) Activity at 5-HT2A (30 uM/0.3 μM) of COc1ccc2c(c1)/C(=C/CN(C)C)CC2 [Compound 5] when tested on human recombinant 5-HT2A receptor (Homo sapiens, UniProt P28223).
**Result** 74

**Query** Tell me Percent (a-Me-5-HT) Activity at 5-HT2A (30 uM/0.3 μM) of COC1C/C(=C\CN)c2ccccc21 (stereo not shown) [Compound 29] when tested on human recombinant 5-HT2A receptor (Homo sapiens, UniProt P28223).
**Result** 6

**Query** Tell me Percent (a-Me-5-HT) Activity at 5-HT2A (30 uM/0.3 μM) of CN(C)C/C=C1\CCc2ccc3c(c21)CCO3 [Compound 14] when tested on human recombinant 5-HT2A receptor (Homo sapiens, UniProt P28223).
**Result** 6

**Query** Tell me Percent (a-Me-5-HT) Activity at 5-HT2A (30 uM/0.3 μM) of CN(C)C/C=C1\CCc2sccc21 [Compound 31] when tested on human recombinant 5-HT2A receptor (Homo sapiens, UniProt P28223).
**Result** 3

**Query** Tell me Percent (a-Me-5-HT) Activity at 5-HT2A (30 uM/0.3 μM) of COC1C/C(=C\CN2CCC2)c2ccccc21 (stereo not shown) [Compound 30] when tested on human recombinant 5-HT2A receptor (Homo sapiens, UniProt P28223).
**Result** 3

**Query** Tell me Percent (a-Me-5-HT) Activity at 5-HT2A (30 uM/0.3 μM) of C(/CN1CCC1)=C1/CCc2ccc3c(c21)CCO3 [Compound 24] when tested on human recombinant 5-HT2A receptor (Homo sapiens, UniProt P28223).
**Result** 17

**Query** Tell me Percent (a-Me-5-HT) Activity at 5-HT2A (30 uM/0.3 μM) of COc1ccc2c(c1)/C(=C(\F)CN(C)C)CC2 [Compound 10] when tested on human recombinant 5-HT2A receptor (Homo sapiens, UniProt P28223).
**Result** 4

**Query** Tell me Percent (a-Me-5-HT) Activity at 5-HT2A (30 uM/0.3 μM) of COc1ccc2c(c1)/C(=C/CN1CCC1)CC2 [Compound 12] when tested on human recombinant 5-HT2A receptor (Homo sapiens, UniProt P28223).
**Result** 27

**Query** Tell me Percent (a-Me-5-HT) Activity at 5-HT2A (30 uM/0.3 μM) of FC(F)(F)Oc1ccc2c(c1)/C(=C/CN1CCC1)CC2 [Compound 27] when tested on human recombinant 5-HT2A receptor (Homo sapiens, UniProt P28223).
**Result** 5

**Query** Tell me Percent (a-Me-5-HT) Activity at 5-HT2A (30 uM/0.3 μM) of CN(C)C/C=C1\C=Cc2ccccc21 [Compound 22] when tested on human recombinant 5-HT2A receptor (Homo sapiens, UniProt P28223).
**Result** 5
